- TGT: D816V Kit (Homo sapiens, UniProt P10721, D816V)
- Construct: purchased Carna Bioscience 08-156
- Sequence (P10721 26-976 D816V): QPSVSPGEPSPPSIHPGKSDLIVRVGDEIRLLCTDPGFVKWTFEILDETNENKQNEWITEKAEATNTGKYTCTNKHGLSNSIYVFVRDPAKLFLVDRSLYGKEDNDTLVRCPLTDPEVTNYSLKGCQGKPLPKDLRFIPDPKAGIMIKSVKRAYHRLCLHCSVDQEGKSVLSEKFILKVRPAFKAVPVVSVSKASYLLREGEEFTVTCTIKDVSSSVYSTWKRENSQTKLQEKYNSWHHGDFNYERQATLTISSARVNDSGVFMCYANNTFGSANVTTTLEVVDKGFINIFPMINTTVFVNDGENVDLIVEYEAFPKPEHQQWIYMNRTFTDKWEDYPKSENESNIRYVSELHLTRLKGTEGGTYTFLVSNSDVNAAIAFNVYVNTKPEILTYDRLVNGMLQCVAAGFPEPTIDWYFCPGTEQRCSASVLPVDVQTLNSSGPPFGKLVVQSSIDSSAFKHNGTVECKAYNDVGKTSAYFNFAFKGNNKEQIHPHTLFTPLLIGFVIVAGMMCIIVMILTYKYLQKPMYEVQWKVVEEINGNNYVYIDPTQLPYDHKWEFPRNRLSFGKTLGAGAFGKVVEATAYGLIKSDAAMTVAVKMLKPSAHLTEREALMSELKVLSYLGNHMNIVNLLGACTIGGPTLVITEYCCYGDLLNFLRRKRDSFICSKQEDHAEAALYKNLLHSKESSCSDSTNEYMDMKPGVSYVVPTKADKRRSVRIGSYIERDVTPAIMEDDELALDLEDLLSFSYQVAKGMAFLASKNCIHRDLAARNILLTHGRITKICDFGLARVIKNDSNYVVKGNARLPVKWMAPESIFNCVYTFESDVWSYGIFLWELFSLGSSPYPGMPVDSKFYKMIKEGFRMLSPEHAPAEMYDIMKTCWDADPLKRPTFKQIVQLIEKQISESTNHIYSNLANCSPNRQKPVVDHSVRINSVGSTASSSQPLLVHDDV
- PROTOCOL_NOTES: Kit D816V assay at Km (Caliper electrophoretic mobility shift)
- ASSAY_CONDITIONS: D816V Kit 0.5 nM, 15 uM ATP (Km), 1 uM Srctide, 25 C, 90 minutes; read-out: Biochemical Activity D816V IC50
pIC50: −log10 of the molar value.

COMPOUND	pIC50
Cn1cc(-c2cc3c(-c4ccc(NC(=O)c5ccc(Cl)cc5)cc4)ncnn3c2)cn1 [Compound 12]	< 7.00
Cn1cc(-c2cc3c(-c4ccc(NC(=O)C(C)(N)c5ccc(Cl)cc5)cc4)ncnn3c2)cn1 (centres unmarked) [Compound 47]	8.00 to 9.00
Cn1cc(-c2cc3c(-c4ccc(NS(=O)(=O)Cc5ccc(C#N)cc5)cc4)ncnn3c2)cn1 [Compound 40]	> 9.00
Cn1cc(-c2cc3c(-c4ccc(NC(=O)C(C)(O)c5ccc(Cl)cc5)cc4)ncnn3c2)cn1 (centres unmarked) [Compound 51]	8.00 to 9.00
Cn1cc(-c2cc3c(-c4ccc(NC(=O)C(N)c5ccc(Cl)cc5)cc4)ncnn3c2)cn1 (centres unmarked) [Compound 31]	8.00 to 9.00
Cn1cc(-c2cc3c(-c4ccc(NC(=O)C(C)(C)c5ccc(Cl)cc5)cc4)ncnn3c2)cn1 [Compound 41]	> 9.00
CS(=O)(=O)Nc1ccc(-c2ncnn3cc(-c4ccc(S(C)(=O)=O)cc4)cc23)cc1 [Compound 16]	8.00 to 9.00
Cn1cc(-c2cc3c(-c4ccc(NC(=O)[C@](C)(N)c5ccc(Cl)cc5)cc4)ncnn3c2)cn1 [Compound 46]	8.00 to 9.00

----------
- TGT: Kit D816V in HMC1.2 cells (Homo sapiens, UniProt P10721, D816V/V560G)
- Construct: endogenous in cells
- Sequence (P10721 26-976 V560G/D816V): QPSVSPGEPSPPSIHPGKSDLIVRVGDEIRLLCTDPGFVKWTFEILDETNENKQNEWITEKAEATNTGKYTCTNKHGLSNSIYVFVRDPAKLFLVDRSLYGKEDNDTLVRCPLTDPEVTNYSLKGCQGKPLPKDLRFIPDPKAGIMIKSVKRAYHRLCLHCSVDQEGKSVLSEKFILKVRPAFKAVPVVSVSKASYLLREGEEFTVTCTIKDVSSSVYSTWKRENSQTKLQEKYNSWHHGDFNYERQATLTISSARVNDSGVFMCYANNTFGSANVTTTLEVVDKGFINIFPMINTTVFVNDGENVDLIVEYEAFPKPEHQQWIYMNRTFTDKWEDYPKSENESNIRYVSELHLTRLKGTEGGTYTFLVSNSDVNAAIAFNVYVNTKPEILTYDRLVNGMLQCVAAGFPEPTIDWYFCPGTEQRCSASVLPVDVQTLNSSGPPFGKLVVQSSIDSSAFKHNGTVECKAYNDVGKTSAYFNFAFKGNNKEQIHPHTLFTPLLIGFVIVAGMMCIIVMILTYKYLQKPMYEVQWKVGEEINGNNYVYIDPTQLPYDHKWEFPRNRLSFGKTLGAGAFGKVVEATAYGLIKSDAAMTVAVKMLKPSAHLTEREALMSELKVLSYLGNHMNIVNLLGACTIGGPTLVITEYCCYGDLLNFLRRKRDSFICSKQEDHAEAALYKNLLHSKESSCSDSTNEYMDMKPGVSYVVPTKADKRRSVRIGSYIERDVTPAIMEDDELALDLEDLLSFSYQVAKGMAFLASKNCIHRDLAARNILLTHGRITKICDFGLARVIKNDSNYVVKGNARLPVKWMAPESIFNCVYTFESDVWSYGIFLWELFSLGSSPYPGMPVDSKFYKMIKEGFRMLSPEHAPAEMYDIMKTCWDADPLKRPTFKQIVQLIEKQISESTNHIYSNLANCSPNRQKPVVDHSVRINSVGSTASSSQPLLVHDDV
- PROTOCOL_NOTES: HMC1.2 autophosphorylation assay (Kit autophosphorylation at tyrosine 719, AlphaLISA)
- ASSAY_CONDITIONS: HMC1.2 mast cell leukemia cells (Kit V560G and D816V), phospho-Y719 c-Kit, 90 minutes; read-out: Cellular Activity IC50
pIC50: −log10 of the molar value.
METRIC: pIC50

COMPOUND	TEST_RESULT
Cn1cc(-c2cc3c(-c4ccc(NS(=O)(=O)c5ccc(Cl)cc5)cc4)ncnn3c2)cn1	7.00 to 8.00
O=C(Cc1ccc(Cl)cc1)Nc1ccc(-c2ncnn3cc(-c4ccc(F)cc4)cc23)cc1	5.00 to 6.00
Cn1cc(-c2cc3c(-c4ccc(NS(=O)(=O)c5ccccc5Cl)cc4)ncnn3c2)cn1	5.00 to 6.00
Cn1cc(-c2cc3c(-c4ccc(NS(=O)(=O)CC5COCCO5)cc4)ncnn3c2)cn1 (stereo not shown)	5.00 to 6.00
Cn1cc(-c2cc3c(-c4ccc(NC(=O)Cc5ccc(F)cc5)cc4)ncnn3c2)cn1	7.00 to 8.00
COc1ccc(S(=O)(=O)Nc2ccc(-c3ncnn4cc(-c5cnn(C)c5)cc34)cc2)cc1	6.00 to 7.00
Cn1cc(-c2cc3c(-c4ccc(NC(=O)C(C)(N)c5ccc(Cl)cc5)cc4)ncnn3c2)cn1 (stereo not shown)	> 8.00
C[C@H](C(=O)Nc1ccc(-c2ncnn3cc(-c4cnn(C)c4)cc23)cc1)c1ccc(Cl)cc1	6.00 to 7.00
Cn1cc(-c2cc3c(-c4ccc(NC(=O)Cc5ccc(Cl)nc5)cc4)ncnn3c2)cn1	7.00 to 8.00
Cn1cc(-c2cc3c(-c4ccc(NS(=O)(=O)c5ccc(F)cc5)cc4)ncnn3c2)cn1	6.00 to 7.00
Cn1cc(-c2cc3c(-c4ccc(NS(=O)(=O)c5ccc(C#N)cc5)cc4)ncnn3c2)cn1	5.00 to 6.00
O=C(c1ccc(-c2cc3c(-c4ccc(NS(=O)(=O)c5ccc(Cl)cc5)cc4)ncnn3c2)cc1)N1CCC1	5.00 to 6.00
CC[C@H](C(=O)Nc1ccc(-c2ncnn3cc(-c4cnn(C)c4)cc23)cc1)c1ccc(Cl)cc1	6.00 to 7.00
Cn1cc(-c2cc3c(-c4ccc(NS(=O)(=O)c5cccc(Cl)c5)cc4)ncnn3c2)cn1	6.00 to 7.00
CC(C(=O)Nc1ccc(-c2ncnn3cc(-c4cnn(C)c4)cc23)cc1)c1ccc(Cl)cc1 (stereo not shown)	> 8.00
C[C@@H](C(=O)Nc1ccc(-c2ncnn3cc(-c4cnn(C)c4)cc23)cc1)c1ccc(Cl)cc1	> 8.00

----------
- TGT: D816V Kit (Homo sapiens, UniProt P10721, D816V)
- PROTOCOL_NOTES: Kit D816V assay at Km (Caliper electrophoretic mobility shift)
- ASSAY_CONDITIONS: D816V Kit 0.5 nM, 15 uM ATP (Km), 1 uM Srctide, 25 C, 90 minutes; read-out: Biochemical Activity D816V IC50

COMPOUND	IC50
Cn1cc(-c2cc3c(-c4ccc(NC(=O)[C@H](O)c5ccc(Cl)cc5)cc4)ncnn3c2)cn1	< 1 nM
CCC(C(=O)Nc1ccc(-c2ncnn3cc(-c4cnn(C)c4)cc23)cc1)c1ccc(Cl)cc1 (centres unmarked)	1.01 to 10 nM
Cn1cc(-c2cc3c(-c4ccc(NC(=O)Cc5ccccn5)cc4)ncnn3c2)cn1	10 to 100 nM
COC(C(=O)Nc1ccc(-c2ncnn3cc(-c4cnn(C)c4)cc23)cc1)c1ccc(Cl)cc1 (centres unmarked)	1.01 to 10 nM
Cn1cc(-c2cc3c(-c4ccc(NC(=O)C5(c6ccc(Cl)cc6)CC5)cc4)ncnn3c2)cn1	10 to 100 nM
CO[C@@H](C(=O)Nc1ccc(-c2ncnn3cc(-c4cnn(C)c4)cc23)cc1)c1ccc(Cl)cc1	< 1 nM
CN(C)C(=O)c1ccc(-c2cc3c(-c4ccc(NS(C)(=O)=O)cc4)ncnn3c2)cc1	1.01 to 10 nM
Cn1cc(-c2cc3c(-c4ccc(NC(=O)[C@@](C)(O)c5ccc(Cl)cc5)cc4)ncnn3c2)cn1	1.01 to 10 nM

----------
Quick reference: pIC50 of the listed items.
- TGT: Kit D816V in HMC1.2 cells (Homo sapiens, UniProt P10721, D816V/V560G)
- Construct: endogenous in cells
- PROTOCOL_NOTES: HMC1.2 autophosphorylation assay (Kit autophosphorylation at tyrosine 719, AlphaLISA)
- ASSAY_CONDITIONS: HMC1.2 mast cell leukemia cells (Kit V560G and D816V), phospho-Y719 c-Kit, 90 minutes; read-out: Cellular Activity IC50
pIC50: −log10 of the molar value.
METRIC: pIC50

COMPOUND	TGT	TEST_RESULT
CO[C@H](C(=O)Nc1ccc(-c2ncnn3cc(-c4cnn(C)c4)cc23)cc1)c1ccc(Cl)cc1	Kit D816V in HMC1.2 cells (Homo sapiens, UniProt P10721, D816V/V560G)	6.00 to 7.00
Cn1cc(-c2cc3c(-c4ccc(NC(=O)Cc5ccccc5)cc4)ncnn3c2)cn1	Kit D816V in HMC1.2 cells (Homo sapiens, UniProt P10721, D816V/V560G)	7.00 to 8.00
CN(C)C(C(=O)Nc1ccc(-c2ncnn3cc(-c4cnn(C)c4)cc23)cc1)c1ccc(Cl)cc1 (stereo not drawn)	Kit D816V in HMC1.2 cells (Homo sapiens, UniProt P10721, D816V/V560G)	7.00 to 8.00
Cn1cc(-c2cc3c(-c4ccc(NC(=O)C(N)c5ccc(Cl)cc5)cc4)ncnn3c2)cn1 (stereo not drawn)	Kit D816V in HMC1.2 cells (Homo sapiens, UniProt P10721, D816V/V560G)	> 8.00
Cn1cc(-c2cc3c(-c4ccc(NC(=O)C(C)(C)c5ccc(Cl)cc5)cc4)ncnn3c2)cn1	Kit D816V in HMC1.2 cells (Homo sapiens, UniProt P10721, D816V/V560G)	7.00 to 8.00
Cn1cc(-c2cc3c(-c4ccc(NC(=O)[C@](C)(O)c5ccc(Cl)cc5)cc4)ncnn3c2)cn1	Kit D816V in HMC1.2 cells (Homo sapiens, UniProt P10721, D816V/V560G)	6.00 to 7.00
Cn1cc(-c2cc3c(-c4ccc(NC(=O)Cc5cccc(Cl)c5)cc4)ncnn3c2)cn1	Kit D816V in HMC1.2 cells (Homo sapiens, UniProt P10721, D816V/V560G)	6.00 to 7.00
Cc1ccc(CC(=O)Nc2ccc(-c3ncnn4cc(-c5cnn(C)c5)cc34)cc2)cc1	Kit D816V in HMC1.2 cells (Homo sapiens, UniProt P10721, D816V/V560G)	7.00 to 8.00
Cn1cc(-c2cc3c(-c4ccc(NS(C)(=O)=O)cc4)ncnn3c2)cn1	Kit D816V in HMC1.2 cells (Homo sapiens, UniProt P10721, D816V/V560G)	5.00 to 6.00
Cn1cc(-c2cc3c(-c4ccc(NC(=O)Cc5ccccn5)cc4)ncnn3c2)cn1	Kit D816V in HMC1.2 cells (Homo sapiens, UniProt P10721, D816V/V560G)	5.00 to 6.00
Cn1cc(-c2cc3c(-c4ccc(NS(=O)(=O)c5ccc(Cl)cc5)c(F)c4)ncnn3c2)cn1	Kit D816V in HMC1.2 cells (Homo sapiens, UniProt P10721, D816V/V560G)	5.00 to 6.00
CC(C)C(C(=O)Nc1ccc(-c2ncnn3cc(-c4cnn(C)c4)cc23)cc1)c1ccc(Cl)cc1 (stereo not drawn)	Kit D816V in HMC1.2 cells (Homo sapiens, UniProt P10721, D816V/V560G)	7.00 to 8.00
CS(=O)(=O)c1ccc(-c2cc3c(-c4ccc(NS(=O)(=O)c5ccc(Cl)cc5)cc4)ncnn3c2)cc1	Kit D816V in HMC1.2 cells (Homo sapiens, UniProt P10721, D816V/V560G)	6.00 to 7.00
CCC(C(=O)Nc1ccc(-c2ncnn3cc(-c4cnn(C)c4)cc23)cc1)c1ccc(Cl)cc1 (stereo not drawn)	Kit D816V in HMC1.2 cells (Homo sapiens, UniProt P10721, D816V/V560G)	7.00 to 8.00
CC[C@@H](C(=O)Nc1ccc(-c2ncnn3cc(-c4cnn(C)c4)cc23)cc1)c1ccc(Cl)cc1	Kit D816V in HMC1.2 cells (Homo sapiens, UniProt P10721, D816V/V560G)	> 8.00
CS(=O)(=O)Nc1ccc(-c2ncnn3cc(-c4ccc(S(C)(=O)=O)cc4)cc23)cc1	Kit D816V in HMC1.2 cells (Homo sapiens, UniProt P10721, D816V/V560G)	6.00 to 7.00
COC(C(=O)Nc1ccc(-c2ncnn3cc(-c4cnn(C)c4)cc23)cc1)c1ccc(Cl)cc1 (stereo not drawn)	Kit D816V in HMC1.2 cells (Homo sapiens, UniProt P10721, D816V/V560G)	7.00 to 8.00
Cn1cc(-c2cc3c(-c4ccc(NC(=O)NCc5ccccc5)cc4)ncnn3c2)cn1	Kit D816V in HMC1.2 cells (Homo sapiens, UniProt P10721, D816V/V560G)	6.00 to 7.00
Cn1cc(-c2cc3c(-c4ccc(NS(=O)(=O)Cc5ccc(C#N)cc5)cc4)ncnn3c2)cn1	Kit D816V in HMC1.2 cells (Homo sapiens, UniProt P10721, D816V/V560G)	7.00 to 8.00
Cn1cc(-c2cc3c(-c4ccc(NC(=O)[C@@H](O)c5ccc(Cl)cc5)cc4)ncnn3c2)cn1	Kit D816V in HMC1.2 cells (Homo sapiens, UniProt P10721, D816V/V560G)	7.00 to 8.00
Cn1cc(-c2cc3c(-c4ccc(NC(=O)Cc5cccnc5)cc4)ncnn3c2)cn1	Kit D816V in HMC1.2 cells (Homo sapiens, UniProt P10721, D816V/V560G)	5.00 to 6.00
